PROTOCOL: solvent given as SMILES
CONDITION SET: in C1CCOC1
// class assignment uses fluorescence lifetime with these ranges: lowest (below 2 ns), middle (2 ns to below 5 ns), highest (5 ns or more)

Exam item: assign CSc1sc(C(N)=O)c2nnn(C)c(=O)c12 to the correct category.
highest

Moving on to C(=C\c1ccc(-c2ccc(/C=C/c3ccc(-n4c5ccccc5c5ccccc54)cc3)s2)s1)/c1ccc(-n2c3ccccc3c3ccccc32)cc1
lowest

Moving on to CCN1C(=O)C(C2C(=O)c3c4ccccc4cc4cc5ccccc5c2c34)SC1=S (stereo unspecified)
highest

Moving on to Cc1cc(C2=C(c3c(C)sc(-c4ccc(-c5nc(-c6ccccc6)c(-c6ccccc6)[nH]5)cc4)c3C)C(F)(F)C(F)(F)C2(F)F)c(C)s1
lowest

Moving on to O=C1OC(=O)c2ccc(N(c3ccccc3)c3c4ccccc4cc4ccccc34)c3cccc1c23
lowest

Moving on to Nc1ccccc1/C=C/C(F)(F)F
highest

Moving on to CC(C)(C)c1ccc(/C=C/c2ccc(N(c3ccc(/C=C/c4ccc(C(C)(C)C)cc4)cc3)c3ccc(-c4nc5ccccc5nc4-c4ccc(N(c5ccc(/C=C/c6ccc(C(C)(C)C)cc6)cc5)c5ccc(/C=C/c6ccc(C(C)(C)C)cc6)cc5)cc4)cc3)cc2)cc1
middle

----------
PROTOCOL: solvent given as SMILES
CONDITION SET: in CCCCCCCCCCCO
MEASURE: fluorescence lifetime (ns)
The reply should be a number in ns, with the unit left off.

I would be grateful if you could share the reported fluorescence lifetime for CCCCCCC(CCCCCC)N1C(=O)c2cccc3c(-c4ccc(OC)cc4)ccc(c23)C1=O .
4.78

Moving on to CCCCCCC(CCCCCC)N1C(=O)c2cccc3c(-c4ccc(C#N)cc4)ccc(c23)C1=O
2.12

Moving on to CCCCCCC(CCCCCC)N1C(=O)c2cccc3c(-c4ccc(N(C)C)cc4)ccc(c23)C1=O
5.51

Moving on to CCCCCCC(CCCCCC)N1C(=O)c2cccc3c(-c4ccc(OC)c5ccccc45)ccc(c23)C1=O
4.85

----------
fluorescence lifetime values, listed per item
PROTOCOL: solvent given as SMILES
CONDITION SET: in CC#N
The reply should be a number in ns, with the unit left off.

Study these solved cases before continuing.
molecule=F[B-]1(F)OC(c2ccc3c(c2)Cc2ccccc2-3)=CC(c2ccccc2)=[O+]1 measure="fluorescence lifetime" assay_result=2.6
molecule=Cc1ccc(-c2cc(-c3ccccc3Cl)c3c(N)nc(N4CCCC4)c(C#N)c3n2)cc1 measure="fluorescence lifetime" assay_result=11.3
molecule="C1=CC2CC1C1C2[C@@]2(c3ccccc3)N=NC1(c1ccccc1)[C@@H]1C[C@H]12 (some centres not stated)" measure="fluorescence lifetime" assay_result=216
molecule=CN(C)c1ccc(/C=C/c2nc3c4ccccc4c4ccccc4c3[nH]2)cc1 measure="fluorescence lifetime" assay_result=0.356
molecule=C/C=C/c1cccc(OC)c1 measure="fluorescence lifetime" assay_result=6.5

I would be grateful if you could share the reported fluorescence lifetime for c1ccc2c(-c3cc(-c4nccs4)nc(-c4nccs4)c3)cccc2c1 .
1.96

Moving on to [NH3+]C1(c2ccc3cc(O)ccc3c2)C2CC3CC(C2)CC1C3 (configuration not stated)
10.3

Moving on to CCCCCCC(CCCCCC)n1c(=O)c2c3ccc4cccc5c6cccc7ccc(c2c1=O)c(c76)c3c45
7.5

Moving on to N#Cc1cc(C#Cc2c(F)c(F)nc(F)c2F)c(C#Cc2c(F)c(F)nc(F)c2F)cc1C#N
3.92

Moving on to COC(=O)[C@@]12N=N[C@@](C(=O)OC)(C3[C@H]1C3(C)C)[C@H]1[C@@H]2C1(C)C (some centres not stated)
101
